Ref: ChEMBL document CHEMBL1150883

Test: Cytotoxicity against human Raji cells assessed as cell viability at 500 molar ratio after 48 hrs
Format: cell-based
Details: read-out: Activity
Assay readout: viability at 48 h, 500 molar ratio (%)
I only need the number, in %, no unit after it.

Q: // returns reported viability at 48 h, 500 molar ratio for input C=C(C)[C@@H]1OC2=C(C(=O)c3ccccc3C2=O)[C@@H]1O
Ans: 60

----------
Test: Cytotoxicity against human Raji cells assessed as cell viability at 1000 molar ratio after 48 hrs
Assay type: cell-based
Settings: read-out: Activity
Could you please report measured viability at 48 h, 1000 molar ratio for the items listed next?
I only need the number, in %, no unit after it.

Q: // returns reported viability at 48 h, 1000 molar ratio for input CC1=C(/C=C/C(C)=C/C=C/C(C)=C/C=C/C=C(C)/C=C/C=C(C)/C=C/C2=C(C)CCCC2(C)C)C(C)(C)CCC1 [BETA CAROTENE]
Ans: 70

Q: // returns reported viability at 48 h, 1000 molar ratio for input CC1(C)C[C@H](O)C2=C(O1)C(=O)c1c(O)cccc1C2=O
Ans: 60

Q: // returns reported viability at 48 h, 1000 molar ratio for input CC1(C)C[C@H](O)[C@H]2C(=O)c3ccccc3[C@@H](O)[C@@H]2O1
Ans: 70

Q: // returns reported viability at 48 h, 1000 molar ratio for input CC1(C)C[C@H](O)C2=C(O1)C(=O)c1ccccc1C2=O
Ans: 60
